System: UO-31
Experiment: Cytotoxicity against human UO31 cells assessed as cell growth at 100 uM after 48 hrs by sulforhodamine B assay relative to control
Assay type: functional
Settings: UO-31, 48 h, read-out: Activity
outcomeMeasure: growth at 100 µM (%)
Give the quantity in %, number only.

# annotated cases, reported growth at 100 µM shown
>  <mol>
COc1cc2c(cc1OC)C(=O)/C(=C/c1cc(-c3ccc4c(c3)OCO4)n[nH]1)C2

>  <measurementTarget>
UO-31

>  <growth at 100 µM / %>
-95

$$$$
>  <mol>
COc1ccc(C(=O)/C=C/c2cc(-c3ccc4c(c3)OCO4)n[nH]2)cc1OC

>  <measurementTarget>
UO-31

>  <growth at 100 µM / %>
-93

$$$$
>  <mol>
COc1ccc(C(=O)/C=C/c2cc(-c3cc(OC)c(OC)c(OC)c3)n[nH]2)cc1

>  <measurementTarget>
UO-31

>  <growth at 100 µM / %>
-79

$$$$
>  <mol>
COc1cc(C(=O)/C=C/c2cc(-c3cc(OC)c(OC)c(OC)c3)n[nH]2)cc(OC)c1OC

>  <measurementTarget>
UO-31

>  <growth at 100 µM / %>
-100

$$$$

Would you kindly look at the next entry?
Asked: Quick check: growth at 100 µM of COc1ccc(-c2cc(/C=C/C(=O)c3ccc(N)cc3)[nH]n2)cc1OC ?
Given back: -85

Each recorded value in this set is attributed to ChEMBL document CHEMBL4138123.
